# ASSAYED TARGET: 5-hydroxytryptamine receptor 6 (Homo sapiens, UniProt P50406)
# Sequence (P50406 whole entry): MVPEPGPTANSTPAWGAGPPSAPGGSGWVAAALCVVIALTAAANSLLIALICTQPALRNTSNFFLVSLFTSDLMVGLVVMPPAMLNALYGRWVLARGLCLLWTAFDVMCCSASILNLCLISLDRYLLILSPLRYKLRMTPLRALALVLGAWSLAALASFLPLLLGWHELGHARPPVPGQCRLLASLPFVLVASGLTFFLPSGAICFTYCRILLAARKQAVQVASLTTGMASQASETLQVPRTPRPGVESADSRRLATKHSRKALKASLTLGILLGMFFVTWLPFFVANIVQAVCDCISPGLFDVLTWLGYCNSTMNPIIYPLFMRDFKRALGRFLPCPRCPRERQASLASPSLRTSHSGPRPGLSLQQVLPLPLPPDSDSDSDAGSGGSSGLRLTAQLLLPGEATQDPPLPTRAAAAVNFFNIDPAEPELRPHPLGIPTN
# PROTOCOL SUMMARY: Inhibition of [3H]LSD binding to human 5-hydroxytryptamine 6 receptor expressed in HEK293 cells
# Assay type: cell-based
Exam item: assign MET to entries whose Ki is below 100 nM and NOT MET to entries at or above 100 nM. Note that a value of exactly 100 nM receives NOT MET.

>  <STRUCTURE>
CN(C)CCc1c[nH]c2ccc(NS(=O)(=O)c3ccc(-c4ccccc4)cc3)cc12

>  <QUALITATIVE LABEL>
MET

$$$$

# check: Ki < 100 nM for O=S(=O)(Nc1ccc2[nH]cc(CCN3CCCC3)c2c1)c1ccc2ccccc2c1
MET

# check: Ki < 100 nM for CCN(CC)C(=O)C(=O)c1c[nH]c2ccc(NS(=O)(=O)c3cccc4cccnc34)cc12
NOT MET

# check: Ki < 100 nM for O=S(=O)(CCc1cccc2ccccc12)Nc1ccc2ccn(CCN3CCCC3)c2c1
NOT MET

# check: Ki < 100 nM for CCN(CC)CCCc1c[nH]c2ccc(NS(=O)(=O)c3ccc4ccccc4c3)cc12
NOT MET

# check: Ki < 100 nM for COc1ccc(OC)c(S(=O)(=O)N2CCC(N3C(=O)OCc4cccc(C)c43)CC2)c1
NOT MET

# check: Ki < 100 nM for O=S(=O)(Nc1ccc2[nH]cc(CCN3CCOCC3)c2c1)c1ccc2ccccc2c1
NOT MET

# check: Ki < 100 nM for O=S(=O)(Nc1ccc2[nH]cc(CCN3CCCC3)c2c1)c1cccc2ccccc12
MET

# check: Ki < 100 nM for CCN(CC)CCn1ccc2cc(NS(=O)(=O)c3ccc4ccccc4c3)ccc21
NOT MET

###

# ASSAYED TARGET: 5-hydroxytryptamine receptor 6 (Homo sapiens)
# PROTOCOL SUMMARY: Inhibition of [3H]LSD binding to human 5-hydroxytryptamine 6 receptor expressed in HEK293 cells
# Assay type: cell-based
MEASURED QUANTITY: pKi
Remember the convention: pKi equals -log10 of concentration in molar.

Worked examples follow.
>  <STRUCTURE>
O=S(=O)(Nc1ccc2ccn(CCN3CCCC3)c2c1)c1cccc2ccccc12

>  <pKi>
7.73

$$$$
>  <STRUCTURE>
Cc1c(S(=O)(=O)Nc2cccc3c2cc(C)n3CCN(C)C)sc2ccc(Cl)cc12

>  <pKi>
7.24

$$$$
>  <STRUCTURE>
O=S(=O)(Nc1ccc2ccn(CCN3CCCC3)c2c1)c1ccc2ccccc2c1

>  <pKi>
7.00

$$$$

Supply measured pKi of CCCN(CCC)CCc1c[nH]c2ccc(NS(=O)(=O)c3ccc4ccccc4c3)cc12 in your reply.
8.41

Supply measured pKi of Cc1c(S(=O)(=O)Nc2ccc3[nH]cc(CCN4CCOCC4)c3c2)sc2ccc(Cl)cc12 in your reply.
7.82

Supply measured pKi of CN(C)CCc1c[nH]c2ccc(NS(=O)(=O)c3cccc4ccccc34)cc12 in your reply.
9.10

Supply measured pKi of Cc1c(S(=O)(=O)Nc2ccc3ccn(CCN4CCCC4)c3c2)sc2ccc(Cl)cc12 in your reply.
6.96

Supply measured pKi of Cc1c(S(=O)(=O)Nc2ccc3[nH]cc(CCN(C)C)c3c2)sc2ccc(Cl)cc12 in your reply.
10.00

Supply measured pKi of O=S(=O)(Nc1ccc2c(ccn2CCN2CCCCC2)c1)c1c(Cl)nc2sccn12 in your reply.
7.50

###

# ASSAYED TARGET: 5-hydroxytryptamine receptor 6 (Homo sapiens, UniProt P50406)
# PROTOCOL SUMMARY: Inhibition of [3H]LSD binding to human 5-hydroxytryptamine 6 receptor expressed in HEK293 cells
# Type: cell-based
MEASURED QUANTITY: pKi
Remember the convention: pKi equals -log10 of concentration in molar.

>  <STRUCTURE>
CN(C)CCn1ccc2c(NS(=O)(=O)c3cccc4ccccc34)cccc21

>  <pKi>
7.19

$$$$
>  <STRUCTURE>
CN(C)CCn1ccc2c(NS(=O)(=O)c3ccc4ccccc4c3)cccc21

>  <pKi>
7.83

$$$$
>  <STRUCTURE>
CCN(CC)CCc1c[nH]c2ccc(NS(=O)(=O)c3cccc4c(Cl)cccc34)cc12

>  <pKi>
8.48

$$$$
>  <STRUCTURE>
O=S(=O)(Nc1ccc2c(ccn2CCN2CCCC2)c1)c1c(Cl)nc2sccn12

>  <pKi>
8.01

$$$$

Supply measured pKi of Cc1cc2cc(NS(=O)(=O)c3c(Cl)nc4sccn34)ccc2n1CCN(C)C in your reply.
7.13

Supply measured pKi of CCN(CC)CCc1c[nH]c2ccc(NS(=O)(=O)c3ccc4ccccc4c3)cc12 in your reply.
7.39

Supply measured pKi of CN1CCC(c2c[nH]c3ccc(NS(=O)(=O)c4cccc5c(Cl)cccc45)cc23)CC1 in your reply.
8.02

Supply measured pKi of O=S(=O)(Nc1ccc2[nH]cc(CCN3CCOCC3)c2c1)c1cccc2ccccc12 in your reply.
6.79

Supply measured pKi of Cc1c(S(=O)(=O)Nc2ccc3[nH]cc(CCN4CCCC4)c3c2)sc2ccc(Cl)cc12 in your reply.
8.40

###

# ASSAYED TARGET: 5-hydroxytryptamine receptor 6 (Homo sapiens, UniProt P50406)
# PROTOCOL SUMMARY: Inhibition of [3H]LSD binding to human 5-hydroxytryptamine 6 receptor expressed in HEK293 cells
# Assay type: cell-based
Reported Ki values follow for various molecules

Worked examples follow.
>  <STRUCTURE>
Cc1c(S(=O)(=O)Nc2ccc3[nH]cc(C(=O)C(=O)N(C)C)c3c2)sc2ccc(Cl)cc12

>  <Ki>
> 1 µM

$$$$
>  <STRUCTURE>
CN(C)CCc1c[nH]c2ccc(NS(=O)(=O)c3ccc4c(Cl)cccc4c3)cc12

>  <Ki>
0.0002 µM

$$$$
>  <STRUCTURE>
O=S(=O)(Nc1ccc2c(ccn2CCCN2CCCCC2)c1)c1c(Cl)nc2sccn12

>  <Ki>
> 1 µM

$$$$

Supply measured Ki of Cc1cc2cc(NS(=O)(=O)c3ccc4ccccc4c3)ccc2n1CCN(C)C in your reply.
0.0858 µM

Supply measured Ki of Cc1c(S(=O)(=O)Nc2ccc3[nH]cc(CN(C)C)c3c2)sc2ccc(Cl)cc12 in your reply.
0.0053 µM

Supply measured Ki of COc1ccc(Br)cc1S(=O)(=O)N1CCC(N2C(=O)OCc3cccc(C)c32)CC1 in your reply.
> 1 µM

Supply measured Ki of CCN(CC)CCn1ccc2cc(NS(=O)(=O)c3c(Cl)nc4sccn34)ccc21 in your reply.
0.0973 µM

Supply measured Ki of CN(C)CCn1ccc2cc(NS(=O)(=O)Cc3ccccc3)ccc21 in your reply.
> 1 µM

Supply measured Ki of Cc1cccc2c1N(C1CCN(S(=O)(=O)c3csc4ccccc34)CC1)C(=O)OC2 in your reply.
0.124 µM

Supply measured Ki of CCCN(CCC)CCc1c[nH]c2ccc(NS(=O)(=O)c3sc4ccc(Cl)cc4c3C)cc12 in your reply.
0.0005 µM

Supply measured Ki of CN(C)CCn1ccc2cc(NS(=O)(=O)c3ccc4ccccc4c3)ccc21 in your reply.
0.0577 µM

###

# ASSAYED TARGET: UniProtKB P50406
# PROTOCOL SUMMARY: Inhibition of [3H]LSD binding to human 5-hydroxytryptamine 6 receptor expressed in HEK293 cells
# Assay type: cell-based
Reported pKi values follow for various compounds
Remember the convention: pKi equals -log10 of concentration in molar.

Worked examples follow.
>  <STRUCTURE>
Cc1cc2cc(NS(=O)(=O)c3cccc4ccccc34)ccc2n1CCN(C)C

>  <ASSAYED TARGET>
UniProtKB P50406

>  <MEASURED QUANTITY>
pKi

>  <RECORDED VALUE>
6.91

$$$$
>  <STRUCTURE>
Cc1cccc2c1N(C1CCN(S(=O)(=O)c3cccc4c(N(C)C)cccc34)CC1)C(=O)OC2

>  <ASSAYED TARGET>
UniProtKB P50406

>  <MEASURED QUANTITY>
pKi

>  <RECORDED VALUE>
6.47

$$$$
>  <STRUCTURE>
Cc1c(S(=O)(=O)Nc2ccc3[nH]cc(C4CCN(C)CC4)c3c2)sc2ccc(Cl)cc12

>  <ASSAYED TARGET>
UniProtKB P50406

>  <MEASURED QUANTITY>
pKi

>  <RECORDED VALUE>
9.00

$$$$
>  <STRUCTURE>
CCN(CC)CCn1ccc2cc(NS(=O)(=O)c3cccc4ccccc34)ccc21

>  <ASSAYED TARGET>
UniProtKB P50406

>  <MEASURED QUANTITY>
pKi

>  <RECORDED VALUE>
6.93

$$$$
>  <STRUCTURE>
CNc1cc(NS(=O)(=O)c2ccc(N)cc2)cc(NC)n1

>  <ASSAYED TARGET>
UniProtKB P50406

>  <MEASURED QUANTITY>
pKi

>  <RECORDED VALUE>
7.83

$$$$

Supply measured pKi of O=C1OCc2ccccc2N1C1CCN(S(=O)(=O)c2csc3ccccc23)CC1 in your reply.
6.90

Supply measured pKi of CCCCN(CCCC)CCc1c[nH]c2ccc(NS(=O)(=O)c3cccc4ccccc34)cc12 in your reply.
8.14

Supply measured pKi of CNc1cc(NS(=O)(=O)c2ccc(N)cc2)nc(NC)n1 in your reply.
7.35

Supply measured pKi of O=S(=O)(Nc1ccc2ccn(CCN3CCCC3)c2c1)c1c(Cl)nc2sccn12 in your reply.
7.28

Supply measured pKi of CCN(CC)CCc1c[nH]c2ccc(NS(=O)(=O)c3sc4ccc(Cl)cc4c3C)cc12 in your reply.
9.52
